target: Solute carrier organic anion transporter family member 1B1 (Homo sapiens, UniProt Q9Y6L6); details: chinese hamster, cho, 10 µM
Sequence (Q9Y6L6 whole entry): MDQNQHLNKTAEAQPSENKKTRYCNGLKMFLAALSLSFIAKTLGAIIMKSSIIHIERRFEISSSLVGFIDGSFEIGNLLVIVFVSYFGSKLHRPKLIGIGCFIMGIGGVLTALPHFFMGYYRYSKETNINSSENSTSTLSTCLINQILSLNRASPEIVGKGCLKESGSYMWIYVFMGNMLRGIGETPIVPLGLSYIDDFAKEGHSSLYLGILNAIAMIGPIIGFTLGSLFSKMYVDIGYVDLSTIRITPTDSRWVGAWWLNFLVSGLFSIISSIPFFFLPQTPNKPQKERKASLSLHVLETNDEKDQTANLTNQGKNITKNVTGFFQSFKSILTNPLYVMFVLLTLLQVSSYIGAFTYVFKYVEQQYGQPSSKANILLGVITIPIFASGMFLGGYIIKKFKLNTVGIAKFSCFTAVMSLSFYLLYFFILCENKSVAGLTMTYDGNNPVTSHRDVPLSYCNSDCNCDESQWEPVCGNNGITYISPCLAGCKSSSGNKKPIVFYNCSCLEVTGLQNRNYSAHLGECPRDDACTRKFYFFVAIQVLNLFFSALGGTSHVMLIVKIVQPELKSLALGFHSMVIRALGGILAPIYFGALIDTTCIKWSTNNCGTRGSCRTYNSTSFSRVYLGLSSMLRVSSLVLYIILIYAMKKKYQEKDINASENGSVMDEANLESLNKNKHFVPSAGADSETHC
Observation type: residual activity (%)
Reply numerically in %, unit not repeated.

Reported residual activity for OCc1ccccc1O was 92.07

The compound listed as CCCCCNC(=N)N/N=C/c1c[nH]c2ccc(OC)cc12.O=C(O)/C=C\C(=O)O [TEGASEROD MALEATE] shows residual activity equal to 73.16

Record summary for CC(C)[C@@H](C)/C=C/[C@@H](C)[C@H]1CC[C@H]2C3=CC=C4C[C@@H](O)CC[C@]4(C)[C@H]3CC[C@]12C : reported residual activity = 31.68

Please fill in: residual activity reported for COC(=O)CC[C@@H](C)[C@H]1CC[C@H]2[C@@H]3[C@H](O)C[C@@H]4C[C@H](O)CC[C@]4(C)[C@H]3C[C@H](O)[C@]12C = 26.02

response.value for Nc1ncnc2nc[nH]c12 (field: residual activity) = 90.14

get_value(item= CCCc1nc2c(C)cc(-c3nc4ccccc4n3C)cc2n1Cc1ccc(-c2ccccc2C(=O)O)cc1 , readout=residual activity) returns 77.57

# residual activity (compound: CC(=O)Nc1ccc(O)cc1 ) is 99.98

For reference, reported residual activity for CC(=O)O[C@H]1CC[C@]2(C)[C@H]3CC=C4[C@@H]5CC(C)(C)CC[C@]5(C(=O)O)CC[C@@]4(C)[C@]3(C)CC[C@H]2C1(C)C stands at 37.04

Looking up CC[C@H](C)C(=O)O[C@H]1C[C@H](O)C=C2C=C[C@H](C)[C@H](CC[C@@H](O)C[C@@H](O)CC(=O)[O-])[C@H]21.[Na+] [PRAVASTATIN SODIUM] , I see its residual activity listed as 100.3

residual activity for Cc1cc(O)cc(C)c1Cl is 116.8

get_value(item= COc1ccc2c(c1OC)OC[C@@H](c1ccc(OC)c(OC)c1OC)C2 , readout=residual activity) returns 113.2

Lab book: residual activity of C[C@@H]1O[C@@H](Oc2c(-c3ccc(O)c(O)c3)oc3cc(O)cc(O)c3c2=O)[C@H](O)[C@H](O)[C@H]1O noted as 107.2

Input C[C@@H]1O[C@@H](O[C@H]2[C@H](O[C@H]3CC[C@@]4(C)[C@@H](CC[C@]5(C)[C@@H]4CC=C4[C@@H]6CC(C)(C)CC[C@]6(C(=O)O[C@@H]6O[C@H](CO[C@@H]7O[C@H](CO)[C@@H](O[C@@H]8O[C@@H](C)[C@H](O)[C@@H](O)[C@H]8O)[C@H](O)[C@H]7O)[C@@H](O)[C@H](O)[C@H]6O)CC[C@]45C)[C@]3(C)CO)OC[C@H](O)[C@@H]2O)[C@H](O)[C@H](O)[C@H]1O . Output residual activity: 127.7

Please fill in: residual activity reported for CCCC(C)C1(CC)C(=O)[N-]C(=S)NC1=O.[Na+] (stereo unspecified) [THIOPENTAL SODIUM] = 73.02

The compound O=C1C=C2CC3(O)COc4c(ccc(O)c4O)C3=C2C=C1O (stereo unspecified) showed residual activity equal to 65.79

Noted for CCOC(=O)c1c(C)cc(O)cc1O : its residual activity reads 116.8

Lookup result for COc1cc2ccc(=O)oc2c(O)c1O ; measured residual activity: 68.87

What the record says about O=C(O)c1cc(-c2ccc(F)cc2F)ccc1O : residual activity is 201

C[C@]12C=CC(=O)C=C1CC[C@@H]1[C@@H]2[C@@H](O)C[C@@]2(C)[C@H]1CC[C@]2(O)C(=O)CO yielded residual activity of 79.83

For record O=c1cc(-c2ccccc2)oc2c(O)c(O)ccc12 [7,8-DIHYDROXYFLAVONE] the listed residual activity is 107.3

// residual activity value for CN[C@@H]1[C@H](O[C@H]2[C@H](O[C@H]3[C@H](O)[C@@H](O)[C@H](NC(=N)N)[C@@H](O)[C@@H]3NC(=N)N)O[C@@H](C)[C@]2(O)CO)O[C@@H](CO)[C@H](O)[C@H]1O.CN[C@@H]1[C@H](O[C@H]2[C@H](O[C@H]3[C@H](O)[C@@H](O)[C@H](NC(=N)N)[C@@H](O)[C@@H]3NC(=N)N)O[C@@H](C)[C@]2(O)CO)O[C@@H](CO)[C@H](O)[C@H]1O.O=S(=O)(O)O.O=S(=O)(O)O.O=S(=O)(O)O [DIHYDROSTREPTOMYCIN SULFATE] : 78.79

Item: CO[C@@H]1[C@@H](OC(N)=O)[C@@H](O)[C@H](Oc2ccc3c([O-])c(NC(=O)c4ccc(O)c(CC=C(C)C)c4)c(=O)oc3c2C)OC1(C)C.[Na+] [NOVOBIOCIN SODIUM] | residual activity: 56.21

Input OCC(O)Cc1ccc2c(c1)OCO2 (stereo unspecified) . Output residual activity: 82.94

response.value for CC(=O)O[C@H]1CC[C@@]2(C)[C@@H](CC[C@@H]3[C@@H]2CC(=O)[C@]2(C)[C@@H]4[C@H](C[C@@H]32)O[C@]2(CC[C@@H](C)CO2)[C@H]4C)C1 [HECOGENIN ACETATE] (field: residual activity) = 103.5

The compound listed as C=C[C@@](C)(O)CC[C@H]1C(=C)C[C@H](O)[C@H]2C(C)(C)CCC[C@]12C has a reported residual activity of 48.6

// residual activity value for Nc1ccccc1C(=O)CC(N)C(=O)O (stereo unspecified) : 58.07
